These data points were gathered from paper PMC5540273.

Kindly state %Inh for each of the entries shown.
Test system: PIP5K2B;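 note: KINOMEscan kinase panel screen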
condition_set: concentration: 1 μM, replicates: in singlicate; n = 1

[in] Consider the compound c1ccc(-c2cnc3nccnn23)cc1 [AH20685] and give its measured %Inh.
[out] 13%

[in] Now consider COc1ccc(Nc2nccc(NCCNC(=O)c3cc4ccccc4s3)n2)cc1 [GSK1379896] and answer again.
[out] 22%

[in] Now consider O=c1[nH]cc(-c2ccc(N3CCOCC3)cc2)c2sc(-c3cn[nH]c3)cc12 [GSK2276055] and answer again.
[out] 1%

[in] Now consider Clc1ccc(-c2nn3ncccc3c2-c2ccnc(Nc3ccc4c(c3)OCCO4)n2)cc1 [GW829116] and answer again.
[out] 0%

[in] Now consider O=C(NC1CCN(c2ccnc(Nc3ccc(F)cc3)n2)C1)c1cc2ccccc2s1 (stereo not drawn) [GSK1379716] and answer again.
[out] 0%

[in] Now consider Cn1cc(-c2ccc3c(c2)CCN3C(=O)Cc2cccc(F)c2)c2c(N)ncnc21 [GSK2603358] and answer again.
[out] 0%

[in] Now consider COc1ccc(CNC(=O)NC2CCN(c3ccnc(Nc4ccc(F)cc4)n3)CC2)cc1 [GSK1379788] and answer again.
[out] 4%

[in] Now consider Cn1cc(-c2ccc3c(c2)CCN3C(=O)Cc2cccc(Cl)c2)c2c(N)ncnc21 [GSK2606590] and answer again.
[out] 10%

[in] Now consider Nc1ncc(-c2ccc3nccc(-c4ccncc4)c3c2)cc1S(=O)(=O)N1CCOCC1 [GSK1627798] and answer again.
[out] 5%
